# assayed system: Potassium voltage-gated channel subfamily KQT member 2 (Rattus norvegicus)
# procedure details: rat KCNQ2 channel potentiation, selectivity assay for KCNQ1 potentiator project, KCNQ2-CHO-K1 cells (AID 493009);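 note: assay conditions were tuned for KCNQ1 rather than KCNQ2 modulators; signal is max minus min fluorescence divided by baseline after thallium stimulus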
# condition context: FluxOR thallium flux fluorescence, at 10 µM, scaled: buffer 0, activator control 100
Active and inactive are the calls of the source.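 Rule for the calls: active = mean duplicate potentiation above the buffer control mean plus 5 SD of buffer wells; inactive = the rest.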
The reply should name one outcome from yes (1) = active, no (0) = inactive

These solved cases illustrate the format of a correct answer.
compound: OCCN1CCN(c2ncnc3c2sc2nc(N4CCOCC4)c4c(c23)CCC4)CC1
assayed system: Potassium voltage-gated channel subfamily KQT member 2 (Rattus norvegicus)
assigned category: no (0)
//
compound: Cc1ccc2cc(CN(C(=O)c3ccco3)c3ccccc3C)c(=O)[nH]c2c1
assayed system: Potassium voltage-gated channel subfamily KQT member 2 (Rattus norvegicus)
assigned category: no (0)
//
compound: O=C1CC(O)(C(F)(F)F)Oc2c1ccc1ccccc21 (stereo unspecified)
assayed system: Potassium voltage-gated channel subfamily KQT member 2 (Rattus norvegicus)
assigned category: yes (1)
//
compound: N=c1ccn(CC(=O)c2ccc(-c3ccccc3)cc2)cc1
assayed system: Potassium voltage-gated channel subfamily KQT member 2 (Rattus norvegicus)
assigned category: no (0)

Which outcome was entered for the compound O=C(NC(=S)Nc1nc2c(s1)CCCC2)c1ccccc1 in this test? no (0)

Tell me the recorded outcome of this test for CCSc1nnc(NC(=O)[C@H](C)NC(=O)c2ccccc2Cl)s1 . no (0)

###

# assayed system: Potassium voltage-gated channel subfamily E member 1 (Homo sapiens) + Potassium voltage-gated channel subfamily KQT member 1 (Homo sapiens) (UniProt P15382+P51787)
# Sequence (P51787 whole entry, looked up): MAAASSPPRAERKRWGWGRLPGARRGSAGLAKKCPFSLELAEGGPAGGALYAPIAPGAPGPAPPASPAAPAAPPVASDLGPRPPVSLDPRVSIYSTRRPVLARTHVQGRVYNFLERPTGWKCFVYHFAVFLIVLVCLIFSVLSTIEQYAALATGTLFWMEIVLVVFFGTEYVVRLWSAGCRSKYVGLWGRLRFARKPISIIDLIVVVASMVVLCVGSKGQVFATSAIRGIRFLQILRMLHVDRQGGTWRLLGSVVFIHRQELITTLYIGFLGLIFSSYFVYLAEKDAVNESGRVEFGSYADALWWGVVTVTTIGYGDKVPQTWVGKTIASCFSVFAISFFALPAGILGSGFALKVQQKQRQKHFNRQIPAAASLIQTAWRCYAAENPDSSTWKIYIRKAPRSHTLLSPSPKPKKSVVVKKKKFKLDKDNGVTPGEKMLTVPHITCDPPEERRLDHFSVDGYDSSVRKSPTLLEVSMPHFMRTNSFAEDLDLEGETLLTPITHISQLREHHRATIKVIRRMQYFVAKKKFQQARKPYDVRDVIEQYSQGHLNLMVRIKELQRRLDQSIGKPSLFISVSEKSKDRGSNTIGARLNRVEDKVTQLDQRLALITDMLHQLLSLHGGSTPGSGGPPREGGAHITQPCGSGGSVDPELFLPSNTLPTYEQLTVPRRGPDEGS
# procedure details: KCNQ1/KCNE1 complex potentiators, confirmation, selectivity assay for KCNQ1 potentiator project, thallium flux, CHO-K1 KCNQ1/E1 cells (AID 493186)
# condition context: FluxOR thallium flux, at 10 µM
Calls of active or inactive are those of the source.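 Rule for the calls: active = mean duplicate activation above the buffer control mean plus 5 SD of those controls; inactive = the rest.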
Entry note: the call must match one of active, inactive

Field: example entries. Status: answers known.
molecule: Cc1sc2ncnc(N3CCN(Cc4ccccc4)CC3)c2c1-c1ccccc1
assigned category: inactive

molecule: O=C(CSc1nnc(-c2ccco2)o1)Nc1cccc([N+](=O)[O-])c1
assigned category: inactive

molecule: CCOc1cccc2sc(NC(=O)c3ccc(Br)s3)nc12
assigned category: inactive

Hi, do you know how CC(=O)C[C@H]1c2cc(C(F)(F)F)ccc2S(=O)(=O)N1Cc1ccccc1 came out in this test? inactive

Test call, this molecule: CC(NC(=O)c1ccccc1Cl)C1CC2CCC1C2 (stereo unspecified) inactive

Returns: the outcome recorded for CN1C(=O)c2ccc(NC(=O)c3c(F)c(F)c(F)c(F)c3F)cc2C1=O in this assay. inactive

Give the logged outcome of this assay for the following molecule: CN(C)CCCN(C(=O)CCOc1ccccc1)c1nc2c(F)cccc2s1 inactive

Write down the call the test reported for this molecule. Item: CCOC(=O)N/C(N)=N/c1nc2ccccc2s1 inactive

Record request — test call for CC(C)(C)NCC(O)CON=C1c2ccccc2-c2ccccc21 (stereo unspecified) active

Please state the recorded outcome for this molecule: Cc1nc(=S)c2c([nH]1)-c1ccccc1CC21CCCCC1 inactive

Could you kindly confirm the outcome this assay logged for COC(=O)N1C(=O)[C@@](Cc2ccccc2)(c2ccccc2)N1C(=O)OC ? inactive

###

# assayed system: Potassium voltage-gated channel subfamily KQT member 2 (Rattus norvegicus)
# procedure details: rat KCNQ2 channel potentiation, selectivity assay for KCNQ1 potentiator project, KCNQ2-CHO-K1 cells (AID 493009);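 note: assay conditions were tuned for KCNQ1 rather than KCNQ2 modulators; signal is max minus min fluorescence divided by baseline after thallium stimulus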
# condition context: FluxOR thallium flux fluorescence, at 10 µM; active compounds read high, scaled: buffer 0, activator control 100
Active and inactive are the calls of the source.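 The calls were made as follows: active = mean duplicate potentiation above the buffer control mean plus 5 SD of buffer wells; inactive = the rest.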
metric: potentiation

Example entries begin here.
molecule: CN1CCC(Oc2ccccc2Sc2ccc(C(F)(F)F)cc2)CC1
potentiation: inactive
//
molecule: COc1ccc(Nc2nc(-c3sc(C)nc3C)cs2)c(OC)c1
potentiation: inactive
//
molecule: O=C(Cn1c(C(F)(F)F)nc2ccccc21)N=Nc1c(O)[nH]c2ccc(Br)cc12
potentiation: inactive
//
molecule: O=c1c2cc(Cl)ccc2[nH]c(=S)n1Cc1cccs1
potentiation: 142% (active)
//
molecule: C=CCNc1nnc(SCC(=O)N2CCC(C(N)=O)CC2)s1
potentiation: inactive
//
molecule: S=c1nc(C2CCCCC2)n(-c2ccccc2)[nH]1
potentiation: 362% (active)
//
molecule: S=C(Nc1ccc(Br)cc1)N1CCn2cccc2C1c1cccnc1 (stereo not drawn)
potentiation: inactive
//
molecule: COc1ccccc1NC(=O)CC1C(=O)NCCN1C(=O)Nc1ccc(Cl)c(Cl)c1 (stereo not drawn)
potentiation: 157% (active)

Would you mind telling me what potentiation value was observed for CCOC(=O)c1sc(NC(=S)NC(=O)c2ccccc2)nc1C ? inactive

Data request, read-out potentiation, for O=C1Nc2cc(C(=O)NCCCN3CCOCC3)ccc2S/C1=C/c1cccc(Cl)c1 inactive

# input molecule: Cc1ccccc1CC(=O)NC1CCN(Cc2ccccc2)CC1 ; wanted: its potentiation inactive

Returns the measured potentiation for the input molecule. Input: Cc1ccc(C(=O)NCCC(=O)NCc2cc(=O)n(C)c(=O)n2C)cc1 inactive

Which potentiation value is on record for CC(=O)C[C@H]1c2cc(C(F)(F)F)ccc2S(=O)(=O)N1Cc1ccccc1 ? inactive

Would you kindly share the measured potentiation for CN(C(=O)CSc1ncnc2sc(-c3ccccc3)cc12)C1CCS(=O)(=O)C1 (stereo not drawn) ? 501% (active)

Need potentiation of CCOC(=O)Cc1csc(NC(=S)NC(=O)c2ccccc2C)n1 , thanks. 200% (active)

# query: potentiation of entry C=CCn1c(=S)[nH]c2sc3c(c2c1=O)CCCC3 294% (active)

###

# procedure details: calcium flux activation in mu-opioid HEK293 cells, confirmation, counter-screen for TRPC4 activator project, cell-based, HEK293 mu-opioid receptor line (AID 449723);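 note: counter screen cells carry the mu-opioid receptor alone and lack TRPC4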
# condition context: Fluo-4 calcium fluorescence, at 10 µM
Active and inactive are the calls of the source.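 Rule for the calls: active = hit in primary screen, with calcium signal over 5 SD above buffer well mean in both duplicates; inactive = the rest.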
Please reply with one of these outcomes: Yes (active), No (inactive)

Could you please tell me the result logged for Cc1ccccc1OCC(=O)NNC(=S)NC(=O)c1ccco1 in this assay? No

# fetch the recorded call for CC(=O)Nc1ccc(C2(c3ccc(NC(C)=O)cc3)C(=O)Nc3ccccc32)cc1 here No

Any idea what this test logged for COc1ccc(CCN(C)CCC(=O)Nc2c(C)cc(C)cc2C)cc1OC ? No

I'd appreciate the recorded outcome for Cc1ccccc1OCC(O)Cn1c(=N)n(Cc2ccccc2)c2ccccc21 (centres undefined) from this test. Yes

###

# assayed system: Potassium voltage-gated channel subfamily KQT member 1 (Homo sapiens)
# procedure details: KCNQ1 potassium channel potentiators, confirmation, FluxOR thallium flux, CHO cells, duplicates (AID 493007);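 for potentiation: 0% = buffer-only wells and 100% = R-L3 activator control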
# condition context: KCNQ1 cell line, FluxOR thallium flux fluorescence, at 10 µM; active compounds read high, % of reference activator effect, buffer zero
Activity calls are given as the source filed them.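 How the source made its calls: active means potentiation averaged over duplicate wells exceeding buffer-only control mean by more than 3 SD; inactive means the rest.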
metric: potentiation

Consider the worked cases shown below.
molecule: CC1CCN(C(=S)NC(=O)c2cccc([N+](=O)[O-])c2)CC1
assayed system: Potassium voltage-gated channel subfamily KQT member 1 (Homo sapiens)
result: 41.5% (active)
//
molecule: Cc1ccc(Cn2c(SCC(=O)N3CC(=O)Nc4ccccc43)nc3ccccc3c2=O)cc1
assayed system: Potassium voltage-gated channel subfamily KQT member 1 (Homo sapiens)
result: inactive
//
molecule: COc1ccccc1NC(=O)C(=O)NNC(=O)COc1ccc2ccccc2c1
assayed system: Potassium voltage-gated channel subfamily KQT member 1 (Homo sapiens)
result: 174% (active)
//
molecule: O=C(NC(=S)Nc1cccc(Cl)c1N1CCCCC1)c1cccs1
assayed system: Potassium voltage-gated channel subfamily KQT member 1 (Homo sapiens)
result: 54% (active)
//
molecule: Nc1ccc(C2(c3ccc(N)cc3)OC(=O)c3ccccc32)cc1
assayed system: Potassium voltage-gated channel subfamily KQT member 1 (Homo sapiens)
result: inactive

Consider the molecule shown here: CCCn1c(SCN2C(=O)c3ccccc3C2=O)nc2cc(Cl)ccc2c1=O What is its recorded potentiation? 39.5% (active)

Could you share which potentiation value was measured for CNC(=O)CSc1nc2c(c(=O)n(C)c(=O)n2C)n1Cc1ccc(C)cc1 ? inactive

Find the recorded potentiation belonging to Cc1ccc(N=Nc2ccc(O)c3ncccc23)cc1C and report it. 24.5% (active)

I'd like to know its potentiation. The molecule in question is COc1cccc(OCC(=O)NNC(=O)C(=O)Nc2cccc(C)c2)c1 74.5% (active)

Form field: reported potentiation of O=c1c2ccc(Cl)cc2nc(-c2ccc([N+](=O)[O-])cc2)n1O 90.5% (active)

Can you look up the measured potentiation of CCOC(=O)C1=NN(C(=O)c2ccc(C)cc2)C(O)(c2ccc(Cl)cc2)C1 (stereo unspecified) for me? 336% (active)

###

# assayed system: Potassium voltage-gated channel subfamily KQT member 1 (Homo sapiens) (UniProt P51787)
# procedure details: KCNQ1 channel current potentiators, confirmation, orthogonal assay for KCNQ1 potentiator project, IonWorks patch clamp, KCNQ1-CHO cells (AID 493184)
# condition context: automated patch clamp current, at 10 µM
The source made the active and inactive calls.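 Rule for the calls: active = current rise at least 3 SD above the untreated control mean in each of two repeat wells; inactive = the rest.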
Entry note: the call must match one of active, inactive

compound: CNC(=O)CSc1nc2c(c(=O)n(C)c(=O)n2C)n1Cc1ccc(C)cc1
assigned category: inactive
//
compound: Cc1onc(-c2ccccc2)c1C(=O)NNC(=S)NC(=O)c1ccc(F)cc1
assigned category: active
//
compound: COc1cc2c3nnc(-c4ccccc4)c-3cn(Cc3ccc(F)cc3)c2cc1OC
assigned category: inactive

Test call, this compound: CCOC(=O)c1oc2c(CN3CCCCC3C)c(O)ccc2c(=O)c1-c1ccc(OC)c(OC)c1 (stereo unspecified) inactive

Please let me know the test result on file for CC1=CC(=O)C(C(C)C)=CC1=NC(=O)c1ccc(C)cc1 . inactive

// param item: COCCn1c(=S)[nH]c2sc3c(c2c1=O)CCC(C)C3 (stereo unspecified) ; yields the recorded call inactive

For O=C(Nc1ccc2[nH]c(=S)sc2c1)c1ccccc1 , what call appears in the results of this test? inactive

Hi, sorry to bother you, what did the test record for C=CCn1c(O)c(N=NC(=S)Nc2cccc(OC)c2)c2ccccc21 ? inactive

// param item: CCCN(C(=O)c1cn(-c2ccccc2)nc1-c1ccc(OC)cc1)C1CCS(=O)(=O)C1 (stereo unspecified) ; yields the recorded call inactive

Query: recorded result category for COc1cccc(NC(=S)N/N=C2/CCCCc3ccccc32)c1 in this test inactive

Per the assay record, what outcome was assigned to CC(C)(C)C1C/C(=C/c2ccccn2)C(=O)/C(=C/c2ccccn2)C1 (stereo unspecified) ? inactive

Please share the test call associated with O=C(NC(=S)Nc1nc2c(ccc3ccccc32)s1)c1cccs1 . inactive

Tell me the assay call for O=C(NC(=S)Nc1ccc(C(F)(F)F)cc1)c1csnn1 please. inactive

Record request — test call for CCC1(c2ccc(Cl)cc2)NC(=S)N(c2ccc(C)c(C)c2)N1 (stereo unspecified) inactive

Hi, sorry to bother you, what did the test record for Cc1nc2sc(C(c3ccccc3)N3CCN(C(=O)c4ccco4)CC3)c(O)n2n1 (stereo unspecified) ? inactive

Could you kindly confirm the outcome this assay logged for CC(/C=N/n1c(-c2ccc(C)cc2)n[nH]c1=S)=C\c1ccco1 ? inactive

For COc1ccc(C(=O)NNC(=O)C(=O)NC2CCCCC2)cc1 , which call appears in the assay record? inactive
